# Assay target: GlcNAc(b1-4)GlcNAc(b1-4)GlcNAc
# Protocol notes: glycan array binding signal (z-score within array); higher = stronger binding
# Assay context: glycan notation: IUPAC condensed, linker removed
The full list was thinned out, with the strongest signals kept by preference.
Readout type: glycan array binding signal (z-score)
Please respond with just the number, no unit label.

Below, 5 binders whose answers are already recorded.
NKR-PIC (Mus musculus) (protein) GTGQKPSREKCCVFIQENLNKTTDCSVNLECPQDWLLHRDKCFHVSQVSNTWEEGQADCGRKGATLLLIQDQEELRFLLDSIKEKYNSFWIGLRFTLPDMNWKWINGTTFNSDVLKITGVTENGSCASILGDKVTPESCASDNRWICQKELNHETPSNDSGT ... 4.83
CGL3 (Coprinopsis cinerea) (protein) MGHHHHHHHHSGFHILRLESTVDLSEPLKDNGIIVFQSDKLDLEPSPNLGPTGIDNTNVNLINAKGDVLLHIGIRRRENAFVFNSIPYGESRGPEERIPLEGTFGDRRDPSITVFDHPDRYQIMIDYKTVYYYKKRLEGRCEKVSYKINEGQTPPFSDVLGVTVLYFANVMPRAN ... 8.4
SLLPI (Mus musculus), Q9D9X8 (protein) MGICMSMYTQVLVPVDADGDHHILWSRFYERWGSCFNPCAGLVNCLPPHSSALYLCHRMEARSRAPRRQLCPPGITWLALAYLLSCLLASSKAKVFSRCELAKEMHDFGLDGYRGYNLADWVCLAYYTSGFNTNAVDHEADGSTNNGIFQISSRRWCRTLASNGPNLCRIYCTDLLNNDLKDSIVCAMKIVQEPLGLGYWEAWRHHCQGRDLSDWVDGCDF ... 1.92
Lb MiSSP8 (Laccaria bicolor) (protein) MYFHTLFACATLMLITTAHASPTVINSLDSRKADLNGDVEARHAADWRRDSDWRRDSDWRRDSDWRRDSD ... 0.319
Gal 10 (Homo sapiens), Q05315 (protein) MSLLPVPYTEAASLSTGSTVTIKGRPLVCFLNEPYLQVDFHTEMKEESDIVFHFQVCFGRRVVMNSREYGAWKQQVESKNMPFQDGQEFELSISVLPDKYQVMVNGQSSYTFDHRIKPEAVKMVQVWRDISLTKFNVSYLKR ... -0.449

Shift focus to the following entry.
Task: # query: glycan array binding signal (z-score) of entry HHL-2 (Homo sapiens), P07307 (protein) MAKDFQDIQQLSSEENDHPFHQGEGPGTRRLNPRRGNPFLKGPPPAQPLAQRLCSMVCFSLLALSFNILLLVVICVTGSQSEGHRGAQLQAELRSLKEAFSNFSSSTLTEVQAISTHGGSVGDKITSLGAKLEKQQQDLKADHDALLFHLKHFPVDLRFVACQMELLHSNGSQRTCCPVNWVEHQGSCYWFSHSGKAWAEAEKYCQLENAHLVVINSWEEQKFIVQHTNPFNTWIGLTDSDGSWKWVDGTDYRHNYKNWAVTQPDNWHGHELGGSEDCVEVQPDGRWNDDFCLQVYRWVCEKRRNATGEVA
Output: 2.8

Numbers sourced from the supplement of paper PMC8728848.
